- Tested on: CP217
- assay notes: qHTS profiling for inhibitors of Plasmodium falciparum proliferation (AID 504749); further: nearly all actives have a fitted effect of over 60% in size
- measurement setup: P. falciparum in erythrocytes, SYBR Green DNA, 72 h; series mostly up to 28.7 µM
Records with an inconclusive call do not appear. Activity calls are given as the source filed them. The call rests on the fitted dose curve; in most records, active means well fitted inhibition curve with a large enough effect; inconclusive means small, poorly fitted or top-dose-only effect; inactive means flat fitted curve, though single readings scatter.
// one of 1 (active), -1 (inactive), no free text

Consider the following illustrative entries.
compound: CC(C)C[C@@H](NC(=O)[C@@H](Cc1ccccc1)NC(=O)c1cnccn1)B(O)O
assigned category: 1
//
compound: N#C/C(=C1/SCC(c2ccccc2Cl)S1)n1ccnc1 (configuration not stated)
assigned category: -1
//
compound: Cc1ccc(/C=C2/C(=O)C3(C)CCC2C3(C)C)cc1 (configuration not stated)
assigned category: -1
//
compound: Cc1c(C)c2c(c(C)c1O)CCC(C)(CCCC(C)CCCC(C)CCCC(C)C)O2 (configuration not stated)
assigned category: -1
//
compound: O=C(O)c1ccc(N[C@@H]2OC[C@@H](O)[C@@H](O)[C@@H]2O)cc1
assigned category: -1
//
compound: O=C1Oc2ccccc2C(=O)C1C(CC(O)c1ccc(-c2ccc(Br)cc2)cc1)c1ccccc1 (configuration not stated)
assigned category: -1

Returns: the outcome recorded for CC1(C)C2CC[C@]1(C)[C@@H](O)C2 in this assay.
-1

Recorded call for CC1(C(=O)O)CCC2(C)CCC3(C)C(=CC(=O)C4C5(C)CCC(O)C(C)(C)C5CCC43C)C2C1 (configuration not stated) ?
-1

Just curious, what result did C[C@]12CCC(=O)C=C1[C@@H]1C[C@H]1[C@H]1[C@@H]3[C@@H]4C[C@H]4[C@@]4(CCC(=O)O4)[C@@]3(C)CC[C@@H]12 get here?
-1
